Test system: Candida albicans
Assay: Antifungal activity against Candida albicans C 129-2000 after 48 hrs by CLSI M27-A2 method
Type: functional

{"columns": ["CHEMICAL_SMILES", "MFC / µg/mL"],
 "data": [
  ["O=C1C=CC(=O)N1CCc1ccccc1", 1.95],
  ["O=C1C=CC(=O)N1Cc1ccccc1", 3.9],
  ["O=C1C=CC(=O)N1CCCc1ccccc1", 3.9],
  ["O=C1C=CC(=O)N1c1ccccc1", 1.95],
  ["O=C1C=CC(=O)N1CCCCc1ccccc1", 1.95]
]}

---

Test system: Torulaspora delbrueckii
Assay: Antifungal activity against Candida coliculosa C 122-2000 after 48 hrs by CLSI M27-A2 method
Format: functional
In this section we review reported MIC values for a set of compounds.

{"columns": ["COMPOUND", "SYSTEM", "LIMIT_QUALIFIER", "MIC, µg/mL"],
 "data": [
  ["O=C(O)/C=C\\C(=O)NCCc1ccccc1", "Torulaspora delbrueckii", ">", 250],
  ["C[C@@H]1[C@H](O)[C@@H](C)/C=C/C=C/C=C/C=C/C=C/C=C/C=C/[C@H](O[C@@H]2O[C@H](C)[C@@H](O)[C@H](N)[C@@H]2O)C[C@@H]2O[C@](O)(C[C@@H](O)C[C@@H](O)[C@H](O)CC[C@@H](O)C[C@@H](O)CC(=O)O[C@H]1C)C[C@H](O)[C@H]2C(=O)O [AMPHOTERICIN B]", "Torulaspora delbrueckii", "=", 0.39],
  ["O=C(O)/C=C\\C(=O)NCCCCc1ccccc1", "Torulaspora delbrueckii", ">", 250],
  ["O=C(O)/C=C\\C(=O)NCCCc1ccccc1", "Torulaspora delbrueckii", ">", 250],
  ["CC(=O)N1CCN(c2ccc(OCC3COC(Cn4ccnc4)(c4ccc(Cl)cc4Cl)O3)cc2)CC1 (configuration not stated) [KETOCONAZOLE]", "Torulaspora delbrueckii", "=", 0.78],
  ["O=C1C=CC(=O)N1CCc1ccccc1", "Torulaspora delbrueckii", "=", 1.95],
  ["O=C(O)/C=C\\C(=O)NCc1ccccc1", "Torulaspora delbrueckii", ">", 250],
  ["O=C1C=CC(=O)N1Cc1ccccc1", "Torulaspora delbrueckii", "=", 1.95],
  ["O=C1C=CC(=O)N1CCCCc1ccccc1", "Torulaspora delbrueckii", "=", 3.9],
  ["O=C(O)/C=C\\C(=O)Nc1ccccc1", "Torulaspora delbrueckii", ">", 250],
  ["O=C1C=CC(=O)N1c1ccccc1", "Torulaspora delbrueckii", "=", 1.95],
  ["O=C1C=CC(=O)N1CCCc1ccccc1", "Torulaspora delbrueckii", "=", 3.9]
]}

---

Test system: Pichia kudriavzevii
Assay: Antifungal activity against Candida krusei C 117-2000 after 48 hrs by CLSI M27-A2 method
Format: functional
In this section we review reported MIC values for a set of compounds.
REPORTED_ENDPOINT: MIC (µg/mL)

{"columns": ["COMPOUND", "REPORTED_ENDPOINT", "UNIT_SYMBOL", "LIMIT_QUALIFIER", "OBSERVED_RESULT"],
 "data": [
  ["O=C1C=CC(=O)N1CCCCc1ccccc1", "MIC", "µg/mL", "=", 7.8],
  ["O=C(O)/C=C\\C(=O)NCc1ccccc1", "MIC", "µg/mL", ">", 250],
  ["C[C@@H]1[C@H](O)[C@@H](C)/C=C/C=C/C=C/C=C/C=C/C=C/C=C/[C@H](O[C@@H]2O[C@H](C)[C@@H](O)[C@H](N)[C@@H]2O)C[C@@H]2O[C@](O)(C[C@@H](O)C[C@@H](O)[C@H](O)CC[C@@H](O)C[C@@H](O)CC(=O)O[C@H]1C)C[C@H](O)[C@H]2C(=O)O", "MIC", "µg/mL", "=", 0.39],
  ["O=C1C=CC(=O)N1Cc1ccccc1", "MIC", "µg/mL", "=", 3.9],
  ["O=C(O)/C=C\\C(=O)NCCCc1ccccc1", "MIC", "µg/mL", ">", 250],
  ["O=C(O)/C=C\\C(=O)Nc1ccccc1", "MIC", "µg/mL", ">", 250],
  ["O=C(O)/C=C\\C(=O)NCCCCc1ccccc1", "MIC", "µg/mL", ">", 250],
  ["O=C1C=CC(=O)N1CCc1ccccc1", "MIC", "µg/mL", "=", 3.9],
  ["CC(=O)N1CCN(c2ccc(OCC3COC(Cn4ccnc4)(c4ccc(Cl)cc4Cl)O3)cc2)CC1 (configuration not stated)", "MIC", "µg/mL", "=", 50],
  ["O=C1C=CC(=O)N1c1ccccc1", "MIC", "µg/mL", "=", 1.95],
  ["O=C(O)/C=C\\C(=O)NCCc1ccccc1", "MIC", "µg/mL", ">", 250],
  ["O=C1C=CC(=O)N1CCCc1ccccc1", "MIC", "µg/mL", "=", 3.9]
]}

---

In this section we review reported MIC values for a set of compounds.
System: Candida albicans
Experiment: Antifungal activity against Candida albicans C 128-2000 after 48 hrs by CLSI M27-A2 method
Type: functional

{"columns": ["COMPOUND", "MIC"],
 "data": [
  ["O=C(O)/C=C\\C(=O)NCCc1ccccc1", "> 250 µg/mL"],
  ["O=C1C=CC(=O)N1CCCc1ccccc1", "3.9 µg/mL"],
  ["O=C(O)/C=C\\C(=O)NCCCCc1ccccc1", "> 250 µg/mL"],
  ["O=C1C=CC(=O)N1CCc1ccccc1", "3.9 µg/mL"],
  ["O=C(O)/C=C\\C(=O)NCCCc1ccccc1", "> 250 µg/mL"],
  ["CC(=O)N1CCN(c2ccc(OCC3COC(Cn4ccnc4)(c4ccc(Cl)cc4Cl)O3)cc2)CC1 (stereo not drawn)", "6.25 µg/mL"],
  ["O=C1C=CC(=O)N1Cc1ccccc1", "1.95 µg/mL"],
  ["O=C1C=CC(=O)N1CCCCc1ccccc1", "0.97 µg/mL"]
]}

---

Tested on: Kluyveromyces marxianus
Assay: Antifungal activity against Candida kefyr C 123-2000 after 48 hrs by CLSI M27-A2 method
Assay type: functional
In this section we review reported MFC values for a set of compounds.
REPORTED_ENDPOINT: MFC (µg/mL)

{"columns": ["CHEMICAL_SMILES", "REPORTED_ENDPOINT", "OBSERVED_RESULT"],
 "data": [
  ["O=C1C=CC(=O)N1CCCCc1ccccc1", "MFC", 7.81],
  ["O=C1C=CC(=O)N1Cc1ccccc1", "MFC", 3.9],
  ["O=C1C=CC(=O)N1c1ccccc1", "MFC", 3.9],
  ["O=C1C=CC(=O)N1CCCc1ccccc1", "MFC", 7.81],
  ["O=C1C=CC(=O)N1CCc1ccccc1", "MFC", 3.9]
]}
